System: Staphylococcus aureus
Experiment: Antibacterial activity against methicillin-resistant Staphylococcus aureus 86 assessed as bacterial growth inhibition in presence of 50 ug/ml calcium ions by CLSI protocol based broth microdilution method
Assay type: functional
reportedEndpoint: MIC (µg/mL)
Give just the number in µg/mL; leave the unit off.

{"smilesRecord": "CCCCCCCCCC(=O)N[C@@H](Cc1ccc(OC)cc1)C(=O)N[C@@H](CC(N)=O)C(=O)N[C@@H](CC(=O)O)C(=O)N[C@@H]1C(=O)NCC(=O)N[C@@H](CCCN)C(=O)N[C@@H](CC(=O)O)C(=O)N[C@H](C)C(=O)N[C@@H](CC(=O)O)C(=O)NCC(=O)N[C@H](CO)C(=O)N[C@@H]([C@@H](C)CC(=O)O)C(=O)N[C@@H](CC(=O)c2ccccc2N)C(=O)O[C@@H]1C", "valueReported": 2}
{"smilesRecord": "CCCCCCCCCC(=O)N[C@@H](Cc1c[nH]c2ccccc12)C(=O)N[C@@H](CC(N)=O)C(=O)N[C@@H](CC(=O)O)C(=O)N[C@@H]1C(=O)NCC(=O)N[C@@H](CN)C(=O)N[C@@H](CC(=O)O)C(=O)N[C@H](C)C(=O)N[C@@H](CC(=O)O)C(=O)NCC(=O)N[C@H](CO)C(=O)N[C@@H]([C@@H](C)CC(=O)O)C(=O)N[C@@H](CC(=O)c2ccccc2N)C(=O)O[C@@H]1C", "valueReported": 1}
{"smilesRecord": "CCCCCCCCCC(=O)N[C@@H](Cc1c[nH]c2ccccc12)C(=O)N[C@@H](CC(N)=O)C(=O)N[C@@H](CC(=O)O)C(=O)N[C@@H]1C(=O)NCC(=O)N[C@@H](C)C(=O)N[C@@H](CC(=O)O)C(=O)N[C@H](C)C(=O)N[C@@H](CC(=O)O)C(=O)NCC(=O)N[C@H](CO)C(=O)N[C@@H]([C@@H](C)CC(=O)O)C(=O)N[C@@H](CC(=O)c2ccccc2N)C(=O)O[C@@H]1C", "valueReported": 0.5}
{"smilesRecord": "C[C@H]1NC(=O)[C@H](CC(=O)O)NC(=O)[C@H](CCCN)NC(=O)CNC(=O)[C@@H](NC(=O)[C@H](CC(=O)O)NC(=O)[C@H](CC(N)=O)NC(=O)[C@H](Cc2c[nH]c3ccccc23)NC(=O)c2ccc(C#Cc3ccccc3)cc2)[C@@H](C)OC(=O)[C@H](CC(=O)c2ccccc2N)NC(=O)[C@H]([C@@H](C)CC(=O)O)NC(=O)[C@@H](CO)NC(=O)CNC(=O)[C@H](CC(=O)O)NC1=O", "valueReported": 0.5}

Would you mind telling me what MIC value was observed for `C[C@H]1NC(=O)[C@H](CC(=O)O)NC(=O)[C@H](CCCN)NC(=O)CNC(=O)[C@@H](NC(=O)[C@H](CC(=O)O)NC(=O)[C@H](CC(N)=O)NC(=O)[C@H](Cc2c[nH]c3ccccc23)NC(=O)c2ccc(C#Cc3ccc(-c4ccccc4)cc3)cc2)[C@@H](C)OC(=O)[C@H](CC(=O)c2ccccc2N)NC(=O)[C@H]([C@@H](C)CC(=O)O)NC(=O)[C@@H](CO)NC(=O)CNC(=O)[C@H](CC(=O)O)NC1=O` ?
2

Fill in the blank: the reported MIC of `CCCCCCCCCC(=O)N[C@@H](Cc1c[nH]c2ccccc12)C(=O)N[C@@H](CC(N)=O)C(=O)N[C@@H](CC(=O)O)C(=O)N[C@@H]1C(=O)NCC(=O)N[C@@H](CCN)C(=O)N[C@@H](CC(=O)O)C(=O)N[C@H](C)C(=O)N[C@@H](CC(=O)O)C(=O)NCC(=O)N[C@H](CO)C(=O)N[C@@H]([C@@H](C)CC(=O)O)C(=O)N[C@@H](CC(=O)c2ccccc2N)C(=O)O[C@@H]1C` is ____.
0.25

Query: MIC; subject: `CCCCCCCCCC(=O)N[C@@H](Cc1c[nH]c2ccccc12)C(=O)N[C@@H](CC(N)=O)C(=O)N[C@@H](CC(=O)O)C(=O)N[C@@H]1C(=O)NCC(=O)N[C@@H](CO)C(=O)N[C@@H](CC(=O)O)C(=O)N[C@H](C)C(=O)N[C@@H](CC(=O)O)C(=O)NCC(=O)N[C@H](CO)C(=O)N[C@@H]([C@@H](C)CC(=O)O)C(=O)N[C@@H](CC(=O)c2ccccc2N)C(=O)O[C@@H]1C`
2

Which MIC is listed for `CCCCCCCCCC(=O)N[C@@H](Cc1c[nH]c2ccccc12)C(=O)N[C@@H](CC(N)=O)C(=O)N[C@@H](CC(=O)O)C(=O)N[C@@H]1C(=O)NCC(=O)N[C@@H](Cc2ccc(O)cc2)C(=O)N[C@@H](CC(=O)O)C(=O)N[C@H](C)C(=O)N[C@@H](CC(=O)O)C(=O)NCC(=O)N[C@H](CO)C(=O)N[C@@H]([C@@H](C)CC(=O)O)C(=O)N[C@@H](CC(=O)c2ccccc2N)C(=O)O[C@@H]1C` ?
4

Query: MIC; subject: `CCCCCCCCCC(=O)N[C@@H](Cc1c[nH]c2ccccc12)C(=O)N[C@@H](CC(N)=O)C(=O)N[C@@H](C)C(=O)N[C@@H]1C(=O)NCC(=O)N[C@@H](CCCN)C(=O)N[C@@H](CC(=O)O)C(=O)N[C@H](C)C(=O)N[C@@H](CC(=O)O)C(=O)NCC(=O)N[C@H](CO)C(=O)N[C@@H]([C@@H](C)CC(=O)O)C(=O)N[C@@H](CC(=O)c2ccccc2N)C(=O)O[C@@H]1C`
16
